# system.under.test: Akt1 (Homo sapiens, UniProt P31749)
# Construct: purchased 32-021
# Sequence (P31749 whole entry): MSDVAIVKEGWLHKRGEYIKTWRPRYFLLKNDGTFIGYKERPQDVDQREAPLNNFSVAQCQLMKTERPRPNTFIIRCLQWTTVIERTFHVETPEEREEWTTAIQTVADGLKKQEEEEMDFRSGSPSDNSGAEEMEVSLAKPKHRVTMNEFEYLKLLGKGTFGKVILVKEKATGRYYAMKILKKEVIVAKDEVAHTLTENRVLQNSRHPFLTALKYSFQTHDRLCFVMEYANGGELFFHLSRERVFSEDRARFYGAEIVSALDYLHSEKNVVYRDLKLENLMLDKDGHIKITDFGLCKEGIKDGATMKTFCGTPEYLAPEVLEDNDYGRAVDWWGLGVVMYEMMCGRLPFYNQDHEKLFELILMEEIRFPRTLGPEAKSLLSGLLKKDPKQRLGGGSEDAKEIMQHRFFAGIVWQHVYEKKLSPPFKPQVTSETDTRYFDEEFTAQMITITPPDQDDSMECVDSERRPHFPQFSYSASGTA
# method.notes: AKT1/PKBα KinEASE FP Fluorescein Green Assay (fluorescence polarization kinase kit)
# Assay type: biochemical
# conditions.used: 1 h reaction, read-out: Inhibitory activities against Akt1 (IC50)
measured.quantity: IC50 (µM)

Example results:
| compound | system.under.test | IC50, µM |
| --- | --- | --- |
| Cc1cc(C(=O)N[C@@H]2CNCC[C@H]2c2ccc(Cl)c(C(F)(F)F)c2)ccc1-c1c(Cl)cnn1C | Akt1 (Homo sapiens, UniProt P31749) | 0.014 |
| CC(Cl)c1ccc([C@H]2CCNC[C@@H]2NC(=O)c2cc(Cl)c(-c3ncnn3C)s2)cc1 (stereo partly shown) | Akt1 (Homo sapiens, UniProt P31749) | 0.082 |

I = CC1CCC([C@H]2CCNC[C@@H]2NC(=O)c2ncc(-c3c(Cl)cnn3C)c(Cl)n2)CC1 (stereo partly shown)
II = CNC(=O)CC1C[C@@H](c2ccc(F)c(F)c2)[C@H](NC(=O)c2cc(-c3c(Cl)cnn3C)c(Cl)s2)CN1 (stereo partly shown)
Problem: Could you tell me which of I and II has the lower IC50 reading? Let me know the label of the one you choose.
Solution: II
(II: 0.003 µM, I: 0.048 µM)

====

# Tested on: human colon cancer cell strain HCT-116
# method.notes: MTT assay, inhibition of tumor cell growth in vitro, 72 h
# Format: cell-based
# conditions.used: Homo sapiens, HCT-116, MTT, read-out: Antitumor proliferative activities of tumor cell (IC50, μM) HCT-116 (converted)
# Description: First, inhibitory activity on tumor proliferation in vitro is determined and the structure activity relationship is preliminarily studied, in which different solid tumor cell strains are selected for determining the antitumor activities in vitro of the synthesized compounds. Cell strains: Human ovarian cancer cell strain (OVCAR8), colon adenocarcinoma cell strain (HCT-116) HCT-116: RPMI 1640+Fetal Bovine Serum […]
measured.quantity: IC50 (µM)

| compound | IC50 [µM] |
| --- | --- |
| Cn1ncnc1-c1cc(C(=O)N[C@H]2CNCC[C@@H]2c2ccc(C(F)(F)F)cc2)oc1Br (racemic) | 8.9 |
| Cn1ncc(Cl)c1-c1cc(C(=O)N[C@@H]2CNC(CC(O)CO)C[C@H]2c2ccc(Cl)c(Cl)c2)oc1Cl (some centres unmarked) | 0.84 |
| Cn1ncc(Cl)c1-c1ccc(C(=O)N[C@@H]2CNC(CCNS(C)(=O)=O)C[C@H]2c2cccc(F)c2)cc1Cl (some centres unmarked) | 2.81 |
| CCc1sc(C(=O)N[C@H]2CNCC[C@@H]2c2cnc3ccccc3c2)cc1-c1c(C(C)C)cnn1C (racemic) | 2.35 |
| Cn1ncc(Cl)c1-c1ccc(C(=O)N[C@@H]2CNC(CCO)C[C@H]2c2ccc(F)c(F)c2)cc1 (some centres unmarked) | 0.42 |

A = Cn1ncc(Br)c1-c1coc(C(=O)N[C@H]2CNCC[C@@H]2c2ccc(C(F)(F)F)cc2)c1 (racemic)
B = Cn1ncc(Cl)c1-c1ccc(C(=O)N[C@@H]2CNCC[C@H]2c2ccc(F)c(F)c2)cc1Cl
C = CNC(=O)CC1C[C@@H](c2ccc(F)c(F)c2)[C@H](NC(=O)c2cc(-c3c(Cl)cnn3C)c(Cl)o2)CN1 (some centres unmarked)
D = CNC(=O)CC1C[C@@H](c2ccc(F)c(F)c2)[C@H](NC(=O)c2ccc(-c3c(Cl)cnn3C)cc2)CN1 (some centres unmarked)
Problem: List from greatest to least IC50. Would you mind listing the labels in the order requested?
Solution: A, B, D, C
(A: 5.89 µM, B: 2.03 µM, D: 0.92 µM, C: 0.56 µM)
